Experiment: Cytotoxicity in HeLa cells (ATP content, ATPlite kit)
Type: cell-based
Details: human, three days incubation, read-out: TOX HELA pCC50 (converted)
Procedure: Glycosaminoglycan sulfation requirements for respiratory syncytial virus infection; Journal of virology (2000), 74(22), 10508-13) and was in-licensed from the NIH (Bethesda, Md., USA). Finally, 20 μL of a HeLa cell suspension (3,000 cells/well) were plated. […] Three days post-virus exposure, viral replication was quantified by measuring GFP expression in the cells by an in house developed MSM laser microscope (Tibotec. Beerse, Belgium). […]
assay endpoint: CC50 at 3 days (µM)

compound string	assay endpoint	reading unit	comparison symbol	assay result
CC(C)Oc1ccc(-c2ncccc2N2CCN(c3ccncc3)CC2)cn1	CC50 at 3 days	µM	=	19.1
CN(C)c1ccc(-c2ncccc2N2CCN(c3ccncc3)CC2)cc1	CC50 at 3 days	µM	=	74.1
OCCCn1c(-c2ncccc2N2CCN(c3ccncc3)CC2)cc2ccccc21	CC50 at 3 days	µM	>	100
COc1ccc(-c2ccc(-c3ncccc3N3CCN(c4ccncc4)CC3)cc2)cc1	CC50 at 3 days	µM	=	11.5
COc1ccc(C(O)(c2ccc(OC)cc2)c2ncccc2N2CCN(c3ccncc3)CC2)cc1	CC50 at 3 days	µM	>	93.3
c1cnc(-c2cnc3ccccc3c2)c(N2CCN(c3ccncc3)CC2)c1	CC50 at 3 days	µM	>	100
c1cnc(N2CCN(c3ccncc3)CC2)c(N2CCN(c3ccncc3)CC2)c1	CC50 at 3 days	µM	=	40.7
c1cnc(-c2cc3ccccc3o2)c(N2CCN(c3ccncc3)CC2)c1	CC50 at 3 days	µM	>	50.1
c1cnc(-c2cccc3cc[nH]c23)c(N2CCN(c3ccncc3)CC2)c1	CC50 at 3 days	µM	=	55
CCn1ccc2cc(-c3ncccc3N3CCN(c4ccncc4)CC3)ccc21	CC50 at 3 days	µM	=	21.9
Cn1ccc2cc(-c3ncccc3N3CCN(c4ccncc4)CC3)ccc21	CC50 at 3 days	µM	=	46.8
c1cnc(-c2ccc3c(c2)OCO3)c(N2CCN(c3ccncc3)CC2)c1	CC50 at 3 days	µM	>	100
N#CCCn1ccc2cc(-c3ncccc3N3CCN(c4ccncc4)CC3)ccc21	CC50 at 3 days	µM	=	55
COc1cc(-c2ncccc2N2CCN(c3ccncc3)CC2)ccn1	CC50 at 3 days	µM	>	97.7
N#CCCn1ccc2ccc(-c3ncccc3N3CCN(c4ccncc4)CC3)cc21	CC50 at 3 days	µM	>	100
Cn1cc(-c2ccc(-c3ncccc3N3CCN(c4ccncc4)CC3)cc2)cn1	CC50 at 3 days	µM	=	70.8
c1cc(N2CCN(c3nccnc3-c3ccc4occc4c3)CC2)ccn1	CC50 at 3 days	µM	>	97.7
OC(c1ccccc1)(c1ccccc1)c1ncccc1N1CCN(c2ccncc2)CC1	CC50 at 3 days	µM	>	25.1

* * *

A collection of compounds and their measured CC50 at 3 days
Experiment: Cytotoxicity in HeLa cells (ATP content, ATPlite kit)
Format: cell-based
Conditions: human, three days incubation, read-out: TOX HELA pCC50 (converted)
assay endpoint: CC50 at 3 days (µM)

compound	reading unit	comparison symbol	assay result
CC1CN(c2cccnc2-c2ccc3ccn(C)c3c2)CCN1c1ccncc1 (stereo not drawn)	µM	=	44.7
COc1ccc(-c2ncccc2N2CCN(c3ccncc3)CC2)cc1OC	µM	>	100
c1cnc(-c2ccc3ccccc3c2)c(N2CCN(c3ccncc3)CC2)c1	µM	=	39.8
c1cnc(-c2cc3ccccc3s2)c(N2CCN(c3ccncc3)CC2)c1	µM	=	10.5
Fc1cccc(-c2nccnc2N2CCN(c3ccccc3)CC2)c1	µM	>	100
CSc1ccc(-c2ncccc2N2CCN(c3ccncc3)CC2)cc1	µM	=	45.7
Clc1ccc(-c2ncccc2N2CCN(c3ccncc3)CC2)c(Cl)c1	µM	=	40.7
c1coc(-c2ccc(-c3nccnc3N3CCN(c4ccncc4)CC3)cc2)c1	µM	=	36.3
c1cnc(-c2ccncc2)c(N2CCN(c3ccncc3)CC2)c1	µM	>	100
Cn1ccc2cc(C(F)(F)F)c(-c3ncccc3N3CCN(c4ccncc4)CC3)cc21	µM	=	75.9
Clc1ccc(-c2ncccc2N2CCN(c3ccncc3)CC2)cc1Cl	µM	=	28.2
COc1ccc(-c2ncccc2N2CCN(c3ccncc3)CC2)cc1	µM	>	100
c1ccc(Cc2nccnc2N2CCN(c3ccncc3)CC2)cc1	µM	=	75.9
c1cnc(-c2ccc3occc3c2)c(N2CCN(c3ccncc3)CC2)c1	µM	=	74.1
Clc1cccc(-c2ncccc2N2CCN(c3ccncc3)CC2)c1	µM	>	100
c1ccc(-c2ccc(-c3ncccc3N3CCN(c4ccncc4)CC3)cc2)cc1	µM	=	10.7
c1cnc(-c2ccc3c(c2)OCCO3)c(N2CCN(c3ccncc3)CC2)c1	µM	=	0.398
COc1ccc(-c2ncccc2N2CCN(c3ccncc3)CC2)cn1	µM	>	97.7

Where do these numbers come from? They come from patent US10150761B2.
